# credit: patent US5026711A

systemUnderTest: benzodiazepine receptors of the peripheral type (Felis catus, UniProt A0ABI7ZQW3)
Sequence (A0ABI7ZQW3 15-183): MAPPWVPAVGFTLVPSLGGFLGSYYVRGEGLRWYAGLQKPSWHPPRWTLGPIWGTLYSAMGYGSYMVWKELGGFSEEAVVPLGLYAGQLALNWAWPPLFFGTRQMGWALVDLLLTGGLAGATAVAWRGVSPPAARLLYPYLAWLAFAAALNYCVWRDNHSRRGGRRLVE
testDetails: inhibition of specific binding of [3H] PK11195 to peripheral type benzodiazepine receptors, membrane proteins of cat brain
testContext: read-out: IC50 (peripheral); [3H] PK11195 0.5 nM, cat brain membranes, 4° C., 2h30
pIC50: −log10 of the molar value.
measuredMetric: pIC50

{"compound": "CN1C(=O)CN=C(c2ccccc2)c2cc(Cl)ccc21 [DIAZEPAM, reference compound]", "observed": 6.28}
{"compound": "CN1C(=O)CN=C(c2ccc(Cl)cc2)c2cc(Cl)ccc21 [R05-4864, reference compound]", "observed": 7.36}

* * *

Below, each of the compounds is paired with its reported IC50 value.
systemUnderTest: central benzodiazepine receptors
testDetails: inhibition of specific binding of [3H] flunitrazepam to central benzodiazepine receptors, rat brain
testContext: 4° C., pH 7.4

{"compound": "CCCN(CCC)C(=O)C(C)Nc1c(C(=O)OCC)cnc2cc3c(cc12)OCO3 (racemic)", "unitName": "µM", "boundSign": "=", "IC50": 12.4}
{"compound": "CN(C(=O)CNc1c(C(=O)c2ccccc2)cnc2cc(Cl)c(Cl)nc12)c1ccc(Cl)cc1", "unitName": "µM", "boundSign": "=", "IC50": 1.68}
{"compound": "CN(C(=O)CNc1c(C(=O)c2ccccc2)cnc2ccc(Cl)nc12)c1ccc(Cl)cc1", "unitName": "µM", "boundSign": "=", "IC50": 2.12}
{"compound": "CN(C(=O)CNc1c(C(=O)c2ccccc2)cnc2cccnc12)c1ccc(Cl)c(Cl)c1", "unitName": "µM", "boundSign": ">", "IC50": 10}
{"compound": "CCCN(CCC)C(=O)CNc1c(C(=O)c2ccccc2)cnc2cc(Cl)ccc12", "unitName": "µM", "boundSign": ">", "IC50": 10}

* * *

The entries below come with measured pIC50 values attached.
systemUnderTest: benzodiazepine receptors of the peripheral type (Felis catus)
testDetails: inhibition of specific binding of [3H] PK11195 to peripheral type benzodiazepine receptors, membrane proteins of cat brain
testContext: [3H] PK11195 0.5 nM, cat brain membranes, 4° C., 2h30; read-out: IC50 (peripheral)
pIC50: −log10 of the molar value.

{"molecule": "CN(C(=O)CNc1c(C(=O)c2ccccc2)cnc2cccnc12)c1ccc(Cl)c(Cl)c1 [compound 26708]", "pIC50": 8.55}
{"molecule": "CCCCN(CCCC)C(=O)C(C)Nc1c(C(=O)OCC)cnc2cc(C(F)(F)F)ccc12 (stereo not drawn) [compound 26362]", "pIC50": 8.52}
{"molecule": "CCCN(CCC)C(=O)C(C)Nc1c(C(=O)OCC)cnc2ccc(C3CCCCC3)cc12 (stereo not drawn) [compound 26487]", "pIC50": 7.41}
{"molecule": "CCCCN(CCCC)C(=O)CNc1c(C(=O)c2ccccc2)cnc2cc(Cl)ccc12 [compound 26386]", "pIC50": 7.80}
{"molecule": "CCCN(CCC)C(=O)C(C)Nc1c(C(=O)OCC)cnc2cc(OC)c(OC)cc12 (stereo not drawn) [compound 26641]", "pIC50": 6.45}
{"molecule": "CN(C(=O)CNc1c(C(=O)c2ccccc2)cnc2cccnc12)c1ccccc1Cl [compound 26651]", "pIC50": 9.03}

* * *

System: receptors of the peripheral type
testDetails: in vivo inhibition of [3H] PK11195 binding to peripheral type receptors in organs of the mouse
testContext: 25 mg/kg oral, brain
Method: The assays were carried out in the mouse by using the binder [^3 H] […] 1--the amount of radioactive binder present in an organ by measuring the radioactivity of an aliquot of the homogenate. 2--the amount of radioactive binder bound to the membrane tissues of an organ by measuring the radioactivity bound on a fiber glass filter after filtration of another aliquot of the homogenate. […]
Short version: % Inhibition, brain at least 80% is 1, less is 0.

{"compound": "COc1ccc(N(C)C(=O)CNc2c(C(=O)c3ccccc3)cnc3cccnc23)cc1", "classLabel": 1}
{"compound": "CN(C(=O)CNc1c(C(=O)c2ccccc2)cnc2cc(Cl)cnc12)c1ccc(Cl)cc1", "classLabel": 0}
{"compound": "COc1ccc(N(C)C(=O)CNc2c(C(=O)c3ccccc3)cnc3cc(Cl)ccc23)cc1", "classLabel": 1}
{"compound": "CCN(C(=O)CNc1c(C(=O)c2ccccc2)cnc2cccnc12)c1ccc(Cl)cc1", "classLabel": 1}
{"compound": "CCCN(CCC)C(=O)C(C)Nc1c(C(=O)OCC)cnc2cc(Cl)ccc12 (stereo not drawn)", "classLabel": 0}
